Assay: NCI Yeast Anticancer Drug Screen. Data for the rad50 strain (AID 155);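 note: 0% = growth of vehicle-only cultures of the same strain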
Settings: S. cerevisiae rad50 strain growth inhibition; at 50.0 µM
Compounds without any hit were thinned out: in the full panel of roughly 79,000, 15% have a hit. Activity calls are given as the source filed them. Cut-off read from the data, not from the text of the source: active = growth inhibition above about 70%; inactive = the rest.
# valid calls are active, inactive; nothing else

Qu. // outcome(item) with item = `O=P(c1ccccc1)(c1ccccc1)c1ccccc1.O=P(c1ccccc1)(c1ccccc1)c1ccccc1.S=C=[N][Sn]([N]=C=S)([N]=C=S)[c]1ccccc1`
Ans. active

Continuing:
Qu. // outcome(item) with item = `Cc1cc(C)c(O)c(C)c1.[Hg]`
Ans. active

Qu. // outcome(item) with item = `O=C(/C=C(\c1ccccc1)N1CC1)c1ccccc1`
Ans. inactive

---

Assay: NCI Yeast Anticancer Drug Screen. Data for the cln2 rad14 strain (AID 165);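 note: 0% = growth equal to vehicle treated cultures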
Details: S. cerevisiae cln2 rad14 strain, at 5.0 µM (retest, dose inferred, filed as 0.5), active compounds read high
The panel holds about 79,000 compounds, 15% with a hit somewhere; the sample as a whole holds those more often.
If the reported growth inhibition equals or exceeds 10%, assign rule met. If not, assign rule not met.

Qu. Quick check: does CC(C)(C)OC(=O)NC(CSC(c1ccccc1)(c1ccccc1)c1cccs1)C(=O)O (centres undefined) have growth inhibition greater than or equal to 10%?
Ans. rule met

Qu. Quick check: does `CC1=[N+](Cc2cc(C)cc(C)c2O)CCCC1` have growth inhibition greater than or equal to 10%?
Ans. rule not met

Qu. Quick check: does C[As](C)SCC1OC2OC(C)(C)OC2C2OC(C)(C)OC12 (centres undefined) have growth inhibition greater than or equal to 10%?
Ans. rule met

Continuing:
Qu. Quick check: does `O=C(O)c1cc([N+](=O)[O-])c(Cl)c([N+](=O)[O-])c1Cl` have growth inhibition greater than or equal to 10%?
Ans. rule met

Qu. Quick check: does `CCC[CH2][Pb]([CH2]CCC)([O]C(C)=O)[O]C(C)=O` have growth inhibition greater than or equal to 10%?
Ans. rule met

Qu. Quick check: does `CC(=O)[CH-]C(C)=O.CC(=O)[CH-]C(C)=O.[CH2-]CCC.[CH2-]CCC.[Sn+4]` have growth inhibition greater than or equal to 10%?
Ans. rule met

Qu. Quick check: does CCC[As](CCC)SC1CCC2(C)C(=CCC3C4CCC(=O)C4(C)CCC32)C1 (centres undefined) have growth inhibition greater than or equal to 10%?
Ans. rule not met

Qu. Quick check: does COC(=O)C1=C(O)C(C(=O)OC)[C@]2(O)[C@@H](C(=O)OC)[C@H]1C[C@@H](c1ccccc1)[C@@H]2C(=O)OC (some centres undefined) have growth inhibition greater than or equal to 10%?
Ans. rule met

---

Assay: NCI Yeast Anticancer Drug Screen. Data for the sgs1 mgt1 strain (AID 161);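 note: 0% = growth of cultures given vehicle only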
Conditions: S. cerevisiae sgs1 mgt1 strain, at 50.0 µM
The panel holds about 79,000 compounds, 15% with a hit somewhere; the sample as a whole holds those more often. The source made the active and inactive calls. Rule as the data show it: active = growth inhibition above about 70%; inactive = the rest.
# valid calls are label 1 = active, label 0 = inactive; nothing else

Record excerpt, results attached:
Qu. // outcome(item) with item = CC1=CCC2(C)C3CCC4(C)C(O)CCC4C3CCC2(C)C1 (configuration not stated)
Ans. label 0

Qu. // outcome(item) with item = CC(=O)[CH-]C(=O)c1ccccc1.CC(=O)[CH-]C(=O)c1ccccc1.C[C@]12CCC(=O)C=C1CC[C@@H]1C2CC[C@@]2(C)C1CC[C@@H]2[O-].C[C@]12CCC(=O)C=C1CC[C@@H]1C2CC[C@@]2(C)C1CC[C@@H]2[O-].Cl.[Ti+4] (some centres not stated)
Ans. label 1

Continuing:
Qu. // outcome(item) with item = `CCC[CH2][Pb]([Cl])([CH2]CCC)[CH2]CCC`
Ans. label 1

Qu. // outcome(item) with item = CCNC(=O)O/N=C1/C=C2CC[C@@H]3C(CC[C@@]4(C)C3CC[C@@H]4OC(=O)NCC)[C@@]2(C)CC1 (some centres not stated)
Ans. label 1

Qu. // outcome(item) with item = CC(=O)Oc1cccc2c1CC(C[Se]c1ccccc1)C(=O)O2 (configuration not stated)
Ans. label 1

Qu. // outcome(item) with item = COc1cc2c3c(c1)-c1c(ccc(OC)c1OC)CC3N(CCCl)CC2 (configuration not stated)
Ans. label 1

Qu. // outcome(item) with item = C=CCCCCCCCCC(=O)O (tested in a mixture with another compound)
Ans. label 0

Qu. // outcome(item) with item = `Oc1c(Cl)cc(Cl)cc1Cl`
Ans. label 1

Qu. // outcome(item) with item = `O=C1NC(=S)NC(=O)C1=C/C=C/c1ccccc1`
Ans. label 1

Qu. // outcome(item) with item = `CN(C)CCC(C(=O)C(Br)Br)(c1ccccc1)c1ccccc1`
Ans. label 1

---

Assay: NCI Yeast Anticancer Drug Screen. Data for the sgs1 mgt1 strain (AID 161);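 note: 0% = growth of cultures given vehicle only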
Details: S. cerevisiae sgs1 mgt1 strain, at 50.0 µM (retest, dose inferred, filed as 5.0), active compounds read high
Experimental: Growth inhibition of yeast strains with defined genetic alterations is measured as a screen for potential anti-cancer activity. Selected strains with alterations in DNA damage repair or cell cycle control were exposed to compounds and growth inhibition was measured relative to vehicle treated controls. The strain used in this assay is sgs1 mgt1
The panel holds about 79,000 compounds, 15% with a hit somewhere; the sample as a whole holds those more often.
If the reported growth inhibition equals or exceeds 90%, assign Yes. If not, assign No.

Qu. Quick check: does `O=[N+]([O-])/C=C/c1cc2c(cc1Br)OCO2` have growth inhibition greater than or equal to 90%?
Ans. No

Continuing:
Qu. Quick check: does `CS/C([S-])=N/N=C/c1ccccn1.[Cl][Pt+]` have growth inhibition greater than or equal to 90%?
Ans. Yes

Qu. Quick check: does COc1cc(C2c3cc4c(cc3[C@@H](Nc3ccc(N)cc3)C3COC(=O)[C@H]23)OCO4)cc(OC)c1O (stereo partly specified) have growth inhibition greater than or equal to 90%?
Ans. Yes

Qu. Quick check: does `Cc1cccc2cc3ccccc3c[n+]12` have growth inhibition greater than or equal to 90%?
Ans. No

Qu. Quick check: does `[C-]#[O+].[C-]#[O+].[C-]#[O+].[Cl-].[Ru+2].c1ccc([PH+](CC[PH+](c2ccccc2)c2ccccc2)CC[PH+](c2ccccc2)c2ccccc2)cc1` have growth inhibition greater than or equal to 90%?
Ans. Yes

Qu. Quick check: does `C[N+](CCCl)(CCCl)Cc1cccc2cccc([N+](=O)[O-])c12` have growth inhibition greater than or equal to 90%?
Ans. No

Qu. Quick check: does O=C(O)C1C2C=CC(C2)C1c1ccccc1 (stereo unspecified) have growth inhibition greater than or equal to 90%?
Ans. No

Qu. Quick check: does COC1NC(=O)NC(=O)C1=[N+]=[N-] (stereo unspecified) have growth inhibition greater than or equal to 90%?
Ans. No

Qu. Quick check: does CC1C(=O)OCC1(C)O (stereo unspecified) have growth inhibition greater than or equal to 90%?
Ans. No

Qu. Quick check: does `[CH3][Sn]([Br])([Br])[CH2]CCCBr` have growth inhibition greater than or equal to 90%?
Ans. Yes

Qu. Quick check: does `[Ni+2].[O-][Cl+3]([O-])([O-])O.c1ccc([PH+](CC[PH+](c2ccccc2)c2ccccc2)c2ccccc2)cc1.c1ccc([PH+](CC[PH+](c2ccccc2)c2ccccc2)c2ccccc2)cc1` have growth inhibition greater than or equal to 90%?
Ans. No

Qu. Quick check: does O=[N+]([O-])O.O=[N+]([O-])O.[NH-]C1CCCCC1[NH-].[Pt+2] (stereo unspecified) have growth inhibition greater than or equal to 90%?
Ans. Yes

Qu. Quick check: does `Cc1nc2c(Br)cc(Br)cc2c(=O)n1-c1ccccc1N` have growth inhibition greater than or equal to 90%?
Ans. No

Qu. Quick check: does `O=C(Nc1ccccc1)c1cc([N+](=O)[O-])ccc1O` have growth inhibition greater than or equal to 90%?
Ans. Yes

---

Assay: NCI Yeast Anticancer Drug Screen. Data for the mgt1 strain (AID 153)
Settings: S. cerevisiae mgt1 mutant growth inhibition; at 33.0 µM; active compounds read high
The panel holds about 79,000 compounds, 15% with a hit somewhere; the sample as a whole holds those more often.
Provide the recorded growth inhibition for the entries that follow.
Numbers only, in %.

Completed entries (count: 3):
Qu. For the molecule CC1(Cl)CC(C)(/C=C/Cl)C(Cl)CC1Cl (centres undefined) , give its measured growth inhibition value.
Ans. 5

Qu. For the molecule `Cc1c2ccccc2cc2ccccc12` , give its measured growth inhibition value.
Ans. 99

Qu. For the molecule `c1ccc2cc3n[se]nc3cc2c1` , give its measured growth inhibition value.
Ans. 27

// below: growth inhibition requested for another molecule
Qu. For the molecule `C=C[C@H]1CN2CC[C@H]1C[C@@H]2[C@@H](O)c1ccnc2ccccc12` , give its measured growth inhibition value.
Ans. 0
